# System: SF-539 CNS
# testProtocol: NCI-60 one-dose screen, 48 h (100 = growth as untreated, 0 = no growth, -100 = all killed)
# testConditions: 10 µM unless noted
Compounds without any hit were thinned out: in the full panel of roughly 83,000, 20% have a hit.
experimentalEndpoint: growth (%)
Respond numerically; units are % and should not be typed.

querysmiles=CCOC(=O)c1sc(N)c(C(=O)OCC)c1C targetorsystem="SF-539 CNS" unitstring=% readoutnumber=38.1
querysmiles=O=C1c2c(c3c4cccnc4[nH]c3c3ccc4ccccc4c23)C(=O)N1CCO targetorsystem="SF-539 CNS" unitstring=% readoutnumber=78.7
querysmiles=CS(=O)(=O)Nc1ccc(-c2nn(-c3ccc(S(C)(=O)=O)cc3)cc2/C=C/C(=O)c2ccc(NC(=O)CO[N+](=O)[O-])cc2)cc1 targetorsystem="SF-539 CNS" unitstring=% readoutnumber=101
querysmiles=Cc1cccc(/C=C/c2nn3c(-c4ccco4)nnc3s2)c1 targetorsystem="SF-539 CNS" unitstring=% readoutnumber=94.9

Moving on to the next molecule.
Output measured growth for this item: Cc1nc(-c2cc3ccccc3oc2=O)ccc1C(=O)/C=C/c1ccccn1
2.25

----------
# System: SF-539 CNS
# testProtocol: NCI-60 one-dose screen, 48 h
# testConditions: 10 µM unless noted
# Protocol: Cells are grown in 96 well plates and exposed to the test compound for 48 hours. Compounds are tested at a single concentration, which is 10^-5 M for most compounds. The reported endpoint is percent growth (GI% or GIPRCNT), where numbers from 0 - 100% represent growth inhibition, and numbers from -100% - 0 represent cell death. For example, a value of 40 represents 60% growth inhibition. A value of 0 means no net growth occurred over the course of the experiment. […]
Compounds without any hit were thinned out: in the full panel of roughly 83,000, 20% have a hit. The source made the active and inactive calls. How the source made its calls: active means growth percent below 10; inactive means the rest.
Give one outcome, nothing more. List: active, inactive

querysmiles=O=C(CSc1nc2sc3c(c2c(=O)n1-c1ccc(Cl)cc1)CCCC3)N/N=C/c1ccc(F)cc1 answerlabel=inactive

For CSc1ccc2c(c1)N(C(=O)/C(C#N)=C/c1c[nH]c3ccccc13)c1ccccc1S2 , which call appears in the assay record?
active

For this molecule, state the assay outcome: CCOC(=O)c1c(Nc2ccccc2)nn2c(N)c(C#N)c(-c3ccc(OC)cc3)nc12
inactive

Query: recorded result category for COc1ccc(-c2nn3c(-c4ccccc4F)nnc3s2)cc1 in this test
inactive

State the result this test recorded for O=C(CCCN1C(=O)/C(=C/c2ccccc2F)SC1=S)N1CCOCC1 .
inactive

Which outcome did this test record for the molecule O=C(N/N=C/c1cccs1)c1[nH]c2ccc(Br)cc2c1-c1ccccc1 ?
active

Can you look up the reported call for C/C(=C(/c1ccc(Cl)cc1)c1ccc(OCCN)cc1)c1ccc(C)cc1 for me?
inactive

In this assay, the call recorded for CN(C)S(=O)(=O)c1oc(-c2ccccc2)nc1C#N was what?
inactive

Entry OC1CCN(CCCOc2c3ccccc3nc3c2oc2ccc(Cl)cc23)CC1 : call = ?
inactive

Each molecule tested received a call. Report the one for CCN(CC)c1ccc(C=O)c(OCc2cn(CC(=O)Nc3ccc(Cl)cc3)nn2)c1 .
inactive

----------
# Tested on: SR leukemia
# testProtocol: NCI-60 one-dose screen, 48 h (100 = growth as untreated, 0 = no growth, -100 = all killed)
# testConditions: 10 µM unless noted
This is part of a sample that, as a whole, favours compounds with a hit. Of some 83,000 tested, about 20% had one in any assay.
Measured growth by item
Please state the figure in %; there is no need to write the unit.

Consider the worked cases shown below.
compound=CSc1ccc2c(c1)N(C(=O)/C(C#N)=C/c1c[nH]c3ccccc13)c1ccccc1S2 targetorsystem="SR leukemia" experimentalendpoint=growth readoutnumber=34.4
compound=Cc1cc(C(=O)Nc2sc3c(c2C(N)=O)CCC(=O)C3)ccc1OCCN1CCCCC1 targetorsystem="SR leukemia" experimentalendpoint=growth readoutnumber=81.6
compound=COc1cccc(N2CCN(c3ncnc4c3[nH]c3ccc(F)cc34)C[C@@H]2C)c1 targetorsystem="SR leukemia" experimentalendpoint=growth readoutnumber=-22.8
compound=CC(C)(C)Nc1nc2c(OCCc3ccccc3)cccn2c1-c1ccccc1Cl targetorsystem="SR leukemia" experimentalendpoint=growth readoutnumber=-14.6

Answer briefly: growth recorded on SR leukemia for Clc1ccc2c(NCCCN3CCOCC3)c3oc4ccccc4c3nc2c1
8.11

Using SR leukemia as the test system, report measured growth of O=C(Nc1nc2ccc(O)cc2s1)c1cccc(C(F)(F)F)c1 .
75.7

Report value: growth, system: SR leukemia, compound: CS(=O)(=O)c1ccc(-c2nc3ccccn3c2-c2nc3ccc([N+](=O)[O-])cc3[nH]2)cc1
95.2

Recall the reported growth of O=C1Nc2ccc(Cl)cc2/C1=C/c1ccc(OCC(=O)c2ccc(Br)cc2)cc1 on SR leukemia and write it down.
103

# return growth for Cc1nc(-c2cc3ccccc3oc2=O)ccc1C(=O)/C=C/c1ccccn1 , test system: SR leukemia
-12.6

For SR leukemia, give growth of the listed compound: N#Cc1nc(-c2ccccc2)oc1N1CCC(CO)C1 (stereo not given)
110

----------
# System: ACHN renal
# testProtocol: NCI-60 one-dose screen, 48 h (100 = growth as untreated, 0 = no growth, -100 = all killed)
# testConditions: 10 µM unless noted
# Experimental: Growth inhibition of the ACHN human tumor cell line is measured as a screen for anti-cancer activity. Cells are grown in 96 well plates and exposed to the test compound for 48 hours. Compounds are tested at a single concentration, which is 10^-5 M for most compounds. The reported endpoint is percent growth (GI% or GIPRCNT), where numbers from 0 - 100% represent growth inhibition, and numbers from -100% - 0 represent cell death. For example, a value of 40 represents 60% growth inhibition. […]
This is part of a sample that, as a whole, favours compounds with a hit. Of some 83,000 tested, about 20% had one in any assay.
# growth listing for each entry below
Express your answer in %, writing the number without its unit.

molecule="COc1cc2nc(-c3ccc(Cl)cc3)cc(OCCCNCC3CCCO3)c2cc1OC (stereo not drawn)" readoutnumber=46.6
molecule="COC1CCN(Cc2ccc3c(NNC(=O)c4cnccn4)nc4cc(F)ccc4n23)C1 (stereo not drawn)" readoutnumber=14.1

Tell me growth reported for O=C(NNc1nc2cc(F)ccc2n2c(CN3CC4(COC4)C3)ccc12)c1cnccn1
13.7

Hello, please tell me recorded growth for this one: CC(=O)Oc1ccccc1C(=O)Nc1ccc(C(=O)/C=C/c2cccs2)cc1
112

Please indicate growth recorded for COc1ccc(COc2ccc(/C=C3/C(=O)Nc4cc(Cl)ccc43)cc2)cc1
95.7

Determine its reported growth: CC(O)C(NC(=O)C1CCCN1C(=O)CNC(=O)C1CC(=O)NCC(=O)NC(Cc2c[nH]c3ccccc23)C(=O)NC(Cc2ccc(O)cc2)C(=O)NCC(=O)NC(CO)C(=O)NC(CCC(N)=O)C(=O)NC(Cc2c[nH]c3ccccc23)C(=O)N1)C(=O)NCC(=O)NC(CCC(N)=O)C(=O)NC(CCCNC(=N)N)C(=O)NC(CC(=O)O)C(=O)O (stereo not drawn)
96.2

Supply reported growth belonging to this molecule: O=C(CSc1nc2sc3c(c2c(=O)n1-c1ccc(Cl)cc1)CCCC3)NNC(=O)Nc1ccc(Cl)c(C(F)(F)F)c1
13.3

Could you please provide reported growth for Cc1cc2nc3c4cc(Cl)ccc4n(CC(=O)NCCN(C)C)c3nc2cc1C ? Thanks!
-47.4

----------
We begin with a simple list: items and their reported growth.
# Test system: ACHN renal
# testProtocol: NCI-60 one-dose screen, 48 h (100 = growth as untreated, 0 = no growth, -100 = all killed)
# testConditions: 10 µM unless noted
Compounds without any hit were thinned out: in the full panel of roughly 83,000, 20% have a hit.
Write down the numeric answer in % and omit the unit.

compound=COc1ccc(/C=N/NC(=O)c2[nH]c3ccc(Br)cc3c2-c2ccccc2)s1 readoutnumber=27
compound=O=c1[nH]c2ccc(Cl)cc2cc1CSc1ccccc1Nc1nccc(-c2ccc(Cl)cc2)n1 readoutnumber=95.7
compound=CN(C)CCCNc1c2ccc(Cl)cc2nc2c1oc1ccccc12 readoutnumber=-36.5
compound=Clc1ccc(-c2cn3cc(Cc4ccc(Cl)c(Cl)c4)sc3n2)cc1 readoutnumber=47
compound="CCCC(=O)NC(c1ccc2c(c1)OC(F)(F)O2)c1cc(C)c2cccnc2c1O (stereo not given)" readoutnumber=6.71

Return the recorded growth value; entry: CCCC(=O)NC(c1cccnc1)c1cc(C)c2cccnc2c1O (stereo not given)
20.2

Determine its reported growth: CCCC(=O)NC(c1ccc(N(CC)CC)cc1)c1cc(C)c2cccnc2c1O (stereo not given)
10.7

Identify the reported growth for the following entry. Cn1cc(-c2cc(N)n3nc(-c4cn(C)c5ccc(F)cc45)cc3n2)c2cc(F)ccc21
-38.6

Provide measured growth value, entry: O=C(CSc1nc2sc3c(c2c(=O)n1-c1ccc(Cl)cc1)CCCC3)NNC(=O)Nc1cccc(C(F)(F)F)c1
6.86

Fill in reported growth for this entry: O=C1Nc2cc(Cl)ccc2/C1=C\c1ccc(OCc2ccc(Br)cc2F)cc1
-83
